Reported inhibition values follow for various compounds
- Assayed system: Glucose transporter (Leishmania mexicana)
- Method notes: ST_JUDE_LEISH: Cytotoxicity at 2uM final concentration against transgenic Leishmania Mexicana promastigotes LmGT2 that are glucose transport deficient and complemented with the L. Mexicana glucose transporter 2. Activity is measured by DNA content using SYBR green in vitro
- Assay type: functional
Measurement name: inhibition (%)

Compound	Assayed system	Measurement name	Measurement unit	Result value
COc1ccc2nccc([C@@H](O)CN3CCC(NCc4ccc5scnc5c4)CC3)c2c1	Glucose transporter (Leishmania mexicana)	inhibition	%	3.04
Cc1cc(N[C@@H](CC(C)C)C(=O)NCc2cccs2)nc(NCCc2ccc(F)cc2)n1	Glucose transporter (Leishmania mexicana)	inhibition	%	0.13
Cc1nn(CC(C)C)c2sc(C(=O)Nc3nc(-c4ccccn4)cs3)cc12	Glucose transporter (Leishmania mexicana)	inhibition	%	2.33
Cc1nc(N)nc(N)c1CCCOc1ccccc1Cl	Glucose transporter (Leishmania mexicana)	inhibition	%	5.78
CCn1c(-c2nonc2N)nc2c(-c3cc4ccccc4s3)ncc(C(=O)N3CCC(N)C3)c21 (centres undefined)	Glucose transporter (Leishmania mexicana)	inhibition	%	10.9
CC(=O)c1c(Nc2c(C)cc(C)cc2C)oc(C)cc1=O	Glucose transporter (Leishmania mexicana)	inhibition	%	3.1
O=C(NC1CC1)C1CCN(Cc2cc3ccccc3n2Cc2ccc(Cl)cc2)CC1	Glucose transporter (Leishmania mexicana)	inhibition	%	-1.79
CCCCCCCc1c(C)nc2cc(OC)ccc2c1O	Glucose transporter (Leishmania mexicana)	inhibition	%	7.02
Cc1nc2nc(N)nc(N)c2c(C)c1Cc1ccccc1Cl	Glucose transporter (Leishmania mexicana)	inhibition	%	7.89
Cc1ccc(C2CC(c3cccs3)=NN2C(=O)c2ccc(Br)o2)cc1 (centres undefined)	Glucose transporter (Leishmania mexicana)	inhibition	%	2.89
Fc1cc(Cl)ccc1Nc1ccnc2cc(I)ccc12	Glucose transporter (Leishmania mexicana)	inhibition	%	3.25
CC[C@H](C)CNC(=O)c1cncc(-c2cccc(CNC3Cc4ccccc4C3)c2)c1	Glucose transporter (Leishmania mexicana)	inhibition	%	-1.15
O=C(c1ccc(F)c(F)c1)N1CCOC(CCN2CCC(c3ccccc3)CC2)(c2ccc(Cl)c(Cl)c2)C1 (centres undefined)	Glucose transporter (Leishmania mexicana)	inhibition	%	3.63
O=C(Nc1cccc(-c2cccc(-c3nc4ccccc4[nH]3)c2)c1)Nc1ccc(Cl)c(Cl)c1	Glucose transporter (Leishmania mexicana)	inhibition	%	7.6
Cc1cc(N2CCCC2)nc(Nc2ccc(NC(=O)C(C)(C)C)cc2)n1	Glucose transporter (Leishmania mexicana)	inhibition	%	-0.65
N#Cc1c(N2CCCCCC2)nc(N)c2c(N)nc3c(c12)CC(=O)N3c1ccc(F)cc1	Glucose transporter (Leishmania mexicana)	inhibition	%	2.89
Nc1ncnc2cc(-c3cccc(S(N)(=O)=O)c3)sc12	Glucose transporter (Leishmania mexicana)	inhibition	%	5.9
CCN1C(=O)N(CCC(C)C)C2(CCN(Cc3ccc(OC)cc3O)CC2)C1=O	Glucose transporter (Leishmania mexicana)	inhibition	%	3
COc1ccc(CCN(C)CCc2ccc(NC(=O)c3cccc4c(=O)c5ccccc5sc34)cc2)cc1	Glucose transporter (Leishmania mexicana)	inhibition	%	0.2
CCNc1cc(CC)nc(Nc2ccc(C)cc2)n1	Glucose transporter (Leishmania mexicana)	inhibition	%	17.9
O=C(Nc1cccc(OC2CCN(Cc3ccccc3)CC2)c1)c1ccc([N+](=O)[O-])cc1	Glucose transporter (Leishmania mexicana)	inhibition	%	4.55
O=C(NCCc1ccc(F)cc1)c1ccc(N2CCN(c3ccncc3)CC2)nc1	Glucose transporter (Leishmania mexicana)	inhibition	%	-4.35
CN(C)c1ccc(CN2CCC(NC(=O)c3ccc(-c4cccc(Cl)c4)s3)CC2)cc1	Glucose transporter (Leishmania mexicana)	inhibition	%	0.31
O=S(=O)(c1cc(Cl)c(Cl)cc1Cl)N1CCCCC(c2ccc(C(F)(F)F)cc2)=N1	Glucose transporter (Leishmania mexicana)	inhibition	%	0.91
Cc1nn(-c2cccc(C(F)(F)F)c2)c2sc(C(=O)NC3CCN(C(C)C)CC3)cc12	Glucose transporter (Leishmania mexicana)	inhibition	%	1.61
CC1CN(c2cnn(Cc3cccc(NC(=O)Nc4cccc(C(F)(F)F)c4)c3)c(=O)c2Cl)CC(C)N1 (centres undefined)	Glucose transporter (Leishmania mexicana)	inhibition	%	7.73
CS(=O)(=O)CCNCc1cccc(-c2cc3c(Nc4ccc5c(cnn5Cc5ccccc5)c4)ncnc3s2)c1	Glucose transporter (Leishmania mexicana)	inhibition	%	0.63
CC(=O)Nc1ncc(C(=O)Nc2cccc(-c3cccc(-c4nc5cc(F)ccc5[nH]4)c3)c2)s1	Glucose transporter (Leishmania mexicana)	inhibition	%	1.65
Cc1cc(=NN=Cc2ccccc2F)c2cc(C(F)(F)F)ccc2[nH]1	Glucose transporter (Leishmania mexicana)	inhibition	%	0.5
Cc1sc(N2CCN(C)CC2)nc1C(=O)Nc1ccc(F)cc1C(F)(F)F	Glucose transporter (Leishmania mexicana)	inhibition	%	3.75
CN1CCC(N2CCC(Oc3cccc(C(=O)NCCCC4CCCC4)c3)CC2)CC1	Glucose transporter (Leishmania mexicana)	inhibition	%	10.3
O=C(Nc1cccc(CN2CCCN(Cc3cccc(O)c3)CC2)c1)c1ccc(-c2ccccc2)cc1	Glucose transporter (Leishmania mexicana)	inhibition	%	-0.17
CN(Cc1ccc(-c2ccc(C(F)(F)F)cc2)cc1)C(=O)Cn1c(CCc2cccc(F)c2F)cc(=O)c2ccc(OCC3CCCN3C)cc21 (centres undefined)	Glucose transporter (Leishmania mexicana)	inhibition	%	4.42
O=C(NCc1cccc(F)c1)Nc1cccc(-c2ccc(-c3nc4cc(F)ccc4[nH]3)cc2)c1	Glucose transporter (Leishmania mexicana)	inhibition	%	6.86
N#Cc1ccc(N/C(=N\c2ccccc2Cl)NC2CCN(Cc3ccccc3)CC2)c(O)c1	Glucose transporter (Leishmania mexicana)	inhibition	%	0.29
c1ccc2c(NCCCCCCCCNc3ccnc4ccccc34)ccnc2c1	Glucose transporter (Leishmania mexicana)	inhibition	%	1.12
Oc1cccc(-c2nc(-c3ccccc3)c(-c3ccc(Oc4ccc(-c5[nH]c(-c6cccc(O)c6)nc5-c5ccccc5)cc4)cc3)[nH]2)c1	Glucose transporter (Leishmania mexicana)	inhibition	%	1.33
NCC1CCCN1Cc1ccc(-c2cccc(-c3nc4cc(C(F)(F)F)ccc4[nH]3)c2)cc1 (centres undefined)	Glucose transporter (Leishmania mexicana)	inhibition	%	3.17
CCOc1ccccc1C(=O)N1CCc2cc3nccc(N4CCN5CCC[C@H]5C4)c3cc21	Glucose transporter (Leishmania mexicana)	inhibition	%	-0.44

---

- Assayed system: Solute carrier family 2, facilitated glucose transporter member 1 (Homo sapiens) (UniProt P11166)
- Sequence (P11166 whole entry): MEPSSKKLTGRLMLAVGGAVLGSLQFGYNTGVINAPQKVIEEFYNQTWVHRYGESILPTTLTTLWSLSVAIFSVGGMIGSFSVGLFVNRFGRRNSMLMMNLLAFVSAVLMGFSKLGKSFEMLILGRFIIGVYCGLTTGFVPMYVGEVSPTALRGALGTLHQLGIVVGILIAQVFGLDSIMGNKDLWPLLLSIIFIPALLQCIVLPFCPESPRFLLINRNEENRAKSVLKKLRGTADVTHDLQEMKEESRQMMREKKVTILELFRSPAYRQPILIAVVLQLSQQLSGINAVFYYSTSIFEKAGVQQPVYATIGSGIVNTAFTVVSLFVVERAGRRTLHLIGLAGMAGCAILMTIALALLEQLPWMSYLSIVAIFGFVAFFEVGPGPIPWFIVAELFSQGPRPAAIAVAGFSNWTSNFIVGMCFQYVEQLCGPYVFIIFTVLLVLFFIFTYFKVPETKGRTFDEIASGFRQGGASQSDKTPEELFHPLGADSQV
- Method notes: ST_JUDE_LEISH: Cytotoxicity at 2uM final concentration against transgenic Leishmania Mexicana promastigotes LmGLUT1 that are glucose transport deficient and complemented with the human glucose transporter GLUT1. Activity is measured by DNA content using SYBR green in vitro
- Format: functional
Reported inhibition values follow for various compounds
Measurement name: inhibition (%)

Compound	Measurement name	Measurement unit	Result value
O=C(NCc1ccccc1)c1ncn(CCCN2CCC(N3CCCC3)CC2)c1-c1ccc(Cl)c(Cl)c1	inhibition	%	-1.45
CCn1c(-c2nonc2N)nc2c(-c3ccccc3)ncc(OCCCCNCCc3ncc[nH]3)c21	inhibition	%	-0.2
NC1CCCN(Cc2ccc(-c3ccc(-c4nc5cc(F)ccc5[nH]4)s3)cc2)C1 (centres undefined)	inhibition	%	2.77
CNCCNCc1ccc(-c2ccc(-c3nc4cc(F)ccc4[nH]3)cc2)cc1	inhibition	%	0.55
C=C[C@]1(C)C[C@@H](OC(=O)c2n[nH]c3ccccc3c2=O)[C@]2(C)[C@H](C)CC[C@]3(CCC(=O)[C@H]32)[C@@H](C)[C@@H]1O	inhibition	%	5.34
NCCCN(Cc1ccc(Cl)c(Cl)c1)C(=O)Nc1ccc(Cl)c(Cl)c1	inhibition	%	14.3
CN(CCCNCc1cccc2ccccc12)CCCNCc1cccc2ccccc12	inhibition	%	1.31
CN(C)c1ccc(-c2ccc(C(=O)NC3CCN(Cc4ccccc4)CC3)s2)cc1	inhibition	%	1.65
CC1CCC(C(C)C)C(OC(=O)CSc2nnc3c(n2)[nH]c2ccccc23)C1 (centres undefined)	inhibition	%	-1.05

---

- Assayed system: Solute carrier family 2, facilitated glucose transporter member 1 (Homo sapiens) (UniProt P11166)
- Method notes: ST_JUDE_LEISH: Cytotoxicity at 2uM final concentration against transgenic Leishmania Mexicana promastigotes LmGLUT1 that are glucose transport deficient and complemented with the human glucose transporter GLUT1. Activity is measured by DNA content using SYBR green in vitro
- Type: functional
Measurement name: inhibition (%)

Compound	Result value
CN(C)C(=O)c1cccc(COc2ccc(N3C(N)=NC(N)=NC3(C)C)cc2Cl)c1	1.73
Cc1nc(N)nc(N)c1-c1ccc2ccccc2c1	-1.96
Cc1ccc(C2CC(c3cccs3)=NN2C(=O)c2ccc(Br)o2)cc1 (stereo not drawn)	3.24
O=C(Nc1ccc(F)cc1)NC1CCN(c2ccnc3ccccc23)C1 (stereo not drawn)	3.76
O=C(N[C@@H](Cc1ccccc1)C(=O)NC1CCCCC1)c1ccc(O)c(-c2cccc(C(F)(F)F)c2)c1	3.98
C[C@H](Cc1ccc(C[C@@H](C)NCC(O)c2cc(Cl)c(N)c(Cl)c2)cc1)NCC(O)c1cc(Cl)c(N)c(Cl)c1 (stereo partly drawn)	0.36
CC(=NNc1nc2ccccc2s1)c1ccccn1	7.41
Cc1ccccc1CNc1nccc(NCCC(=O)Nc2ccccc2)n1	4.53
Cc1ccc2[nH]c3c(c2c1)CC(C(=O)NCCC(C)C)NC31CCN(Cc2ccccc2)CC1 (stereo not drawn)	0.11
Fc1ccccc1COc1ccc(Nc2ncnc3ccc(I)cc23)cc1Cl	18.2
Cc1ccoc1C(=O)Nc1cccc(-c2cccc(-c3nc4cc(C(F)(F)F)ccc4[nH]3)c2)c1	3.75
CCN(C)C(=O)n1ncc2c3c(N)nc(N)nc3ccc21	3.44
CN(c1ccc(C(=O)N[C@@H](CCC(=O)O)C(=O)O)cc1)S(=O)(=O)c1ccc2nc(N)[nH]c(=O)c2c1	2.98
CS(=O)(=O)Nc1ccc2[nH]cc(C3CCN(CC4CCC(NC(=O)/C=C/c5ccc(Cl)c(Cl)c5)CC4)CC3)c2n1 (stereo not drawn)	3.3
Cc1cc(=NN=Cc2ccc(Cl)cc2)c2cc(F)ccc2[nH]1	-0.08
O=C(O)c1cc(C(F)(F)F)co1	-2.13
CCN(CCCN1CCCCC1)c1cc(C)nc(Nc2cccc(C(F)(F)F)c2)n1	-5.65
CC(C)N(Cc1ccccc1)C(=O)CN1C(=O)COc2ccc(S(=O)(=O)N3CCCCCC3)cc21	4.92
CN1CCCN(Cc2cccc(-c3ccc(CNC(=O)c4cccc(Cl)c4)c(F)c3)c2)CC1	69.9
O=C(C1COc2ccccc2O1)N(CCCn1ccnc1)Cc1csc(-c2ccc(CNCc3ccccc3)cc2)n1 (stereo not drawn)	3.99
Cc1cccc2nc(-c3ccc(-c4ccc(NC(=O)Nc5ccsc5)cc4)s3)[nH]c12	5.12
Cc1ccc(NC(=O)c2ccc(CN3CCCN(Cc4cccc(O)c4)CC3)cc2)cc1C	0.9
O=C(Nc1cccc(CN2CCN(Cc3ccc(O)cc3)CC2)c1)c1ccc(Cl)c(Cl)c1	3.5
O=C(O)c1ccc2nc(-c3ccccn3)c(-c3ccccn3)nc2c1	-0.91
CN1CCCN(Cc2ccc(-c3ccc(NS(=O)(=O)c4cccc5cccnc45)cc3)cc2)CC1	5.67
CC1(C)NC(N)=NC(=N)N1OCCc1ccc(N)cc1	5.6
O=C(/C=C/c1cc([N+](=O)[O-])ccc1Cl)N1CCC(CCN2CCC(c3c[nH]c4ccccc34)CC2)CC1	2.1
COc1ccc(CCn2c(=N)c(C(=O)NCc3ccc(C)cc3)cc3c(=O)n4ccccc4nc32)cc1	3.94
O=C1C(c2ccccc2)=C(Nc2ccc([N+](=O)[O-])cc2)c2ccccc21	6.69
O=C(NC1CC1)c1ccc2cc(C(=O)N3Cc4ccccc4C(c4ccccc4)C3)ccc2c1 (stereo not drawn)	2.37
FC(F)(F)c1ccc2[nH]c(-c3ccc(-c4ccc(CN5CCN(c6cnccn6)CC5)cc4)cc3)nc2c1	12.9
CN1C(=C2SC(=Nc3ccc4ncccc4c3)N(Cc3ccccc3)C2=O)Sc2ccc(Cl)cc21	1.22
CC(=O)NCCCCC1NC2(C(=O)N(Cc3ccc(C(C)(C)C)cc3)c3ccccc32)C2C(=O)N(C3CCCCC3)C(=O)C12 (stereo not drawn)	-1.24
CC(C)C[C@H]1c2[nH]c3ccc(Cl)cc3c2CCN1C(=O)CCc1ccccc1	3.74
Cc1cc(C2CCN(CCCCNC(=O)c3ccc(-c4ccc(C(F)(F)F)cc4)cc3)CC2)c(C)cc1OCC(N)=O	0.54
COc1ccc2nccc([C@@H](O)CN3CCC(NC(=O)Cc4ccc(Br)c5ccccc45)CC3)c2c1	3.72
COc1c(C2CCN(CCCCNC(=O)c3ccc(-c4ccc(Cl)cc4)cc3)CC2)ccc2c1C(C)(C)CCC2(C)C	-1.1
O=C(Nc1cccc(F)c1)c1ccc(C(=O)NC2CCN(CC3CCCCC3)C2)cc1 (stereo not drawn)	11.1
